Dear all, this message contains IC50 results, target or system GSK3β (Homo sapiens, UniProt P49841).

smi	IC50 / µM
CC(=O)OCCn1nc(NC(=O)C2CCCC2)c2cc(F)c(-c3cnn4ccccc34)nc21	34.9
O=C(Cc1ccc(F)cc1)Nc1n[nH]c2nc(-c3cnn4ccccc34)c(F)cc12	14.4
Cc1cccc2c(-c3nc4[nH]nc(NC(=O)c5ccc(N(C)C)cc5)c4cc3F)cnn12	13.3

###

Below: a set of entries, each annotated with reported inhibition at 25 µM.
target-of-assay: GSK3β (Homo sapiens, UniProt P49841)
Construct: made in house; host or cells: Sf21 insect cells
Sequence (P49841 whole entry): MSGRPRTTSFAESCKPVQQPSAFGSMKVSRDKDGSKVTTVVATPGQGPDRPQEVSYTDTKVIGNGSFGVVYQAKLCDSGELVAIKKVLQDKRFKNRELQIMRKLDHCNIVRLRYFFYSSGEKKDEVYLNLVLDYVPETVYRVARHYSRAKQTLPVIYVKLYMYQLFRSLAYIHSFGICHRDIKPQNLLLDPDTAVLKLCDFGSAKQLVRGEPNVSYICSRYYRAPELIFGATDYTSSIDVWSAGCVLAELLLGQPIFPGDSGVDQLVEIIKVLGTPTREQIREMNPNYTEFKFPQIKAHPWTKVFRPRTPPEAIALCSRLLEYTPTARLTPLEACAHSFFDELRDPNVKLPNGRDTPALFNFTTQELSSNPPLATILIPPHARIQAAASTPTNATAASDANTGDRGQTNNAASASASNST
experiment-notes: Assay for inhibitory activity against GSK3β (Kinase-Glo luminescence)
Assay type: biochemical
condition-context: compound at 25 μM; 750 nM ATP, 4 μM GSY-2 phosphopeptide; vs control without compound

molecule	inhibition at 25 µM, %
O=C(Nc1n[nH]c2nc(-c3cnn4ccccc34)c(F)cc12)C1CCCC1 [Example 1-2]	76.9
COc1ccn2ncc(-c3nc4c(cc3F)c(N)nn4CCO)c2c1 [Example 1-90]	116
O=C(Nc1nn(CCO)c2nc(-c3cnn4ccccc34)c(F)cc12)c1ccccc1 [Example 1-89]	1.5
CC(=O)OCCn1nc(NC(=O)Cc2ccc(F)cc2)c2cc(F)c(-c3cnn4ccccc34)nc21 [Example 1-95]	53.2

###

Parameter: inhibition at 50 µM. Scope: all listed entries.
target-of-assay: GSK3β (Homo sapiens, UniProt P49841)
Construct: made in house; host or cells: Sf21 insect cells
experiment-notes: Assay for inhibitory activity against GSK3β (Kinase-Glo luminescence)
Type: biochemical
condition-context: compound at 50 μM; 750 nM ATP, 4 μM GSY-2 phosphopeptide; vs control without compound
Description: The compounds of the present invention were assayed for inhibitory activity against GSK3β. The GSK-3 is implicated in the incidence of various diseases including diabetes, Alzheimer's disease, CNS disorders and hypertrophic cardiomyopathy. GSK3β was purified from Sf21 cells using a procedure described in the literature, R. Dajani et. al. (Cell 2001, 195, 721-732). […]
reported-metric: inhibition at 50 µM (%)

smi	assay-result
CC(=O)OCCn1nc(NC(=O)C2CCCC2)c2cc(F)c(-c3cnn4ccccc34)nc21	90.1
O=C(Nc1n[nH]c2nc(-c3cnn4ccccc34)c(F)cc12)C1CC1	96.3
Cc1cccc2c(-c3nc4[nH]nc(NC(=O)C5CCCC5)c4cc3F)cnn12	82.1
CC(=O)OCCn1nc(NC(=O)Cc2ccc(F)cc2)c2cc(F)c(-c3cnn4ccccc34)nc21	78.9
O=C(Nc1nn(C(=O)C2CCCC2)c2nc(-c3cnn4ccccc34)c(F)cc12)C1CCCC1	87.2
CC(=O)OCCn1nc(N)c2cc(F)c(-c3cnn4c(C)cccc34)nc21	37.8
COc1ccn2ncc(-c3nc4c(cc3F)c(N)nn4CCOC(C)=O)c2c1	87.2
CC(=O)OCCn1nc(N)c2cc(F)c(-c3cnn4ccccc34)nc21	80.4
Cc1cccc2c(-c3nc4[nH]nc(NC(=O)c5cccc(C#N)c5)c4cc3F)cnn12	78
Cc1cccc2c(-c3nc4c(cc3F)c(NC(=O)c3ccc(F)cc3)nn4C(=O)c3ccc(F)cc3)cnn12	88.6
CC(=O)OCCn1nc(NC(=O)C2CC2)c2cc(F)c(-c3cnn4ccccc34)nc21	49.5
COc1ccn2ncc(-c3nc4[nH]nc(NC(=O)Cc5ccc(F)cc5)c4cc3F)c2c1	94.6
Cc1cccc2c(-c3nc4[nH]nc(NC(=O)c5ccc(N(C)C)cc5)c4cc3F)cnn12	92.3
Cc1cccc2c(-c3nc4[nH]nc(NC(=O)C5CC5)c4cc3F)cnn12	53.1
O=C(Cc1ccc(F)cc1)Nc1nn(CCO)c2nc(-c3cnn4ccccc34)c(F)cc12	86.5
CC(=O)OCCn1nc(NC(=O)c2ccc(F)cc2)c2cc(F)c(-c3cnn4c(C)cccc34)nc21	97.5
O=C(Nc1n[nH]c2nc(-c3cnn4ccccc34)c(F)cc12)C1CCCC1	95.3

###

target-of-assay: GSK3β (Homo sapiens, UniProt P49841)
Construct: made in house; host or cells: Sf21 insect cells
experiment-notes: Assay for inhibitory activity against GSK3β (Kinase-Glo luminescence)
Type: biochemical
condition-context: compound at 50 μM; 750 nM ATP, 4 μM GSY-2 phosphopeptide; vs control without compound
Measured inhibition at 50 µM accompanies every entry in the list below.
reported-metric: inhibition at 50 µM (%)

smi	target-of-assay	assay-result
COc1ccn2ncc(-c3nc4[nH]nc(NC(=O)C5CC5)c4cc3F)c2c1	GSK3β (Homo sapiens, UniProt P49841)	61.6
O=C(Cc1ccc(F)cc1)Nc1n[nH]c2nc(-c3cnn4ccccc34)c(F)cc12	GSK3β (Homo sapiens, UniProt P49841)	90.7
Cc1cccc2c(-c3nc4[nH]nc(NC(=O)Cc5ccc(F)cc5)c4cc3F)cnn12	GSK3β (Homo sapiens, UniProt P49841)	70.8

###

target-of-assay: GSK3β (Homo sapiens)
Construct: made in house; host or cells: Sf21 insect cells
experiment-notes: Assay for inhibitory activity against GSK3β (Kinase-Glo luminescence)
Type: biochemical
condition-context: compound at 25 μM; 750 nM ATP, 4 μM GSY-2 phosphopeptide; vs control without compound
Overview of reported inhibition at 25 µM across a group of compounds:
reported-metric: inhibition at 25 µM (%)

smi	reported-metric	unit-name	assay-result
O=C(Nc1n[nH]c2nc(-c3cnn4ccccc34)c(F)cc12)C1CC1	inhibition at 25 µM	%	80.8
Cc1cccc2c(-c3nc4c(cc3F)c(NC(=O)c3ccc(F)cc3)nn4C(=O)c3ccc(F)cc3)cnn12	inhibition at 25 µM	%	51.6
Nc1nn(CCO)c2nc(-c3cnn4ccccc34)c(F)cc12	inhibition at 25 µM	%	26.7
O=C(Cc1ccc(F)cc1)Nc1nn(CCO)c2nc(-c3cnn4ccccc34)c(F)cc12	inhibition at 25 µM	%	47.9
Cc1cccc2c(-c3nc4[nH]nc(NC(=O)C5CCCC5)c4cc3F)cnn12	inhibition at 25 µM	%	63.8
O=C(Cc1ccc(F)cc1)Nc1n[nH]c2nc(-c3cnn4ccccc34)c(F)cc12	inhibition at 25 µM	%	77.4
CC(=O)OCCn1nc(N)c2cc(F)c(-c3cnn4c(C)cccc34)nc21	inhibition at 25 µM	%	19.7
CC(=O)OCCn1nc(NC(=O)c2ccc(F)cc2)c2cc(F)c(-c3cnn4c(C)cccc34)nc21	inhibition at 25 µM	%	81.9
CC(=O)OCCn1nc(N)c2cc(F)c(-c3cnn4ccccc34)nc21	inhibition at 25 µM	%	64.5
COc1ccn2ncc(-c3nc4c(cc3F)c(NC(=O)c3ccccc3)nn4CCO)c2c1	inhibition at 25 µM	%	117
Cc1cccc2c(-c3nc4[nH]nc(NC(=O)C5CC5)c4cc3F)cnn12	inhibition at 25 µM	%	11.6
COc1ccn2ncc(-c3nc4[nH]nc(NC(=O)Cc5ccc(F)cc5)c4cc3F)c2c1	inhibition at 25 µM	%	58.2
CC(=O)OCCn1nc(NC(=O)C2CCCC2)c2cc(F)c(-c3cnn4ccccc34)nc21	inhibition at 25 µM	%	68.6
Cc1cccc2c(-c3nc4[nH]nc(NC(=O)Cc5ccc(F)cc5)c4cc3F)cnn12	inhibition at 25 µM	%	48.3
CC(=O)OCCn1nc(NC(=O)C2CC2)c2cc(F)c(-c3cnn4ccccc34)nc21	inhibition at 25 µM	%	24.4
COc1ccn2ncc(-c3nc4[nH]nc(NC(=O)C5CC5)c4cc3F)c2c1	inhibition at 25 µM	%	37.7
Cc1cccc2c(-c3nc4[nH]nc(NC(=O)c5ccc(N(C)C)cc5)c4cc3F)cnn12	inhibition at 25 µM	%	71.2

###

target-of-assay: GSK3β (Homo sapiens, UniProt P49841)
Construct: made in house; host or cells: Sf21 insect cells
experiment-notes: Assay for inhibitory activity against GSK3β (Kinase-Glo luminescence)
Type: biochemical
condition-context: compound at 25 μM; 750 nM ATP, 4 μM GSY-2 phosphopeptide; vs control without compound
reported-metric: inhibition at 25 µM (%)

compound	target-of-assay	reported-metric	unit-name	assay-result
COc1ccn2ncc(-c3nc4[nH]nc(N)c4cc3F)c2c1 [Example 1-12]	GSK3β (Homo sapiens, UniProt P49841)	inhibition at 25 µM	%	87.7
Nc1n[nH]c2nc(-c3cnn4ccccc34)c(F)cc12 [Example 1-11]	GSK3β (Homo sapiens, UniProt P49841)	inhibition at 25 µM	%	30
COc1ccn2ncc(-c3nc4c(cc3F)c(N)nn4CCOC(C)=O)c2c1 [Example 1-83]	GSK3β (Homo sapiens, UniProt P49841)	inhibition at 25 µM	%	81.2
CC(=O)OCCn1nc(NC(=O)c2ccccc2)c2cc(F)c(-c3cnn4ccccc34)nc21 [Example 1-88]	GSK3β (Homo sapiens, UniProt P49841)	inhibition at 25 µM	%	23
O=C(Nc1nn(C(=O)C2CCCC2)c2nc(-c3cnn4ccccc34)c(F)cc12)C1CCCC1 [Example 1-94]	GSK3β (Homo sapiens, UniProt P49841)	inhibition at 25 µM	%	41.7
Cc1cccc2c(-c3nc4[nH]nc(NC(=O)c5cccc(C#N)c5)c4cc3F)cnn12 [Example 1-5]	GSK3β (Homo sapiens, UniProt P49841)	inhibition at 25 µM	%	35.1
